Percent Effect listing for selected compounds.
Molecular target: AMP-activated protein kinase, AMPK (Homo sapiens) (UniProt P54646+O43741+P54619+Q9UGJ0+Q9Y478+Q13131+Q9UGI9)
Experiment: AMP-dependent Kinase enzyme assay. An in vitro enzyme assay that detects ADP turnover that is directly proportional to AMPK activity. This uses naive AMPK that is activated during the assay with MK-8722
Type: functional
Set-up: scale not given: direction of the effect not stated beside the values
Conditions: 30 µM
property: Percent Effect (%)

compound=CC(C)(C)c1ncc(C(=O)NCCS(N)(=O)=O)s1 recorded_result=-2.41
compound=O=C(Cn1ccc2ccccc21)NCc1ccc(C(=O)O)cc1 recorded_result=10.1
compound=Cc1oc(C)c(C(=O)N2CCCN(Cc3cscn3)CC2)c1C recorded_result=7.44
compound=Cc1cc(C)cc(N(C)S(=O)(=O)c2cc(C(=O)O)cs2)c1 recorded_result=-10.8
compound=COc1ccc(CCNC(=O)NC2CCCC2)cc1OC recorded_result=-0.309
compound="O=C(O)c1cc2c(nc1O)CC(c1cccc(Cl)c1)CC2=O (configuration not stated)" recorded_result=28.2
compound=N#CC1(C(=O)Nc2ccc(OC(F)F)cc2)CCCC1 recorded_result=5.97
compound=CN(CC(=O)N1CCC(Oc2ccccc2)CC1)c1cnccn1 recorded_result=-3.35
compound="CC(C)S(=O)(=O)N1CCC(c2cc3n(n2)[C@@H](C(F)(F)F)C[C@@H](C)N3)C1 (some centres not stated)" recorded_result=-46.3
compound="O=C(O)CC1CN(Cc2ccccc2)CCO1 (configuration not stated)" recorded_result=5.19
compound=O=C(CCNS(=O)(=O)c1ccc2c(c1)CCCC2)NCc1ccoc1 recorded_result=8.4
compound="CN1CCCc2cc(NC(=O)N3CCOC(C(N)=O)C3)ccc21 (configuration not stated)" recorded_result=34.2

* * *

Target: Chromo domain-containing protein 1 (Saccharomyces cerevisiae (strain ATCC 204508 / S288c) (Baker's yeast)) (UniProt P32657)
Sequence (P32657 whole entry, the tested form may be a part): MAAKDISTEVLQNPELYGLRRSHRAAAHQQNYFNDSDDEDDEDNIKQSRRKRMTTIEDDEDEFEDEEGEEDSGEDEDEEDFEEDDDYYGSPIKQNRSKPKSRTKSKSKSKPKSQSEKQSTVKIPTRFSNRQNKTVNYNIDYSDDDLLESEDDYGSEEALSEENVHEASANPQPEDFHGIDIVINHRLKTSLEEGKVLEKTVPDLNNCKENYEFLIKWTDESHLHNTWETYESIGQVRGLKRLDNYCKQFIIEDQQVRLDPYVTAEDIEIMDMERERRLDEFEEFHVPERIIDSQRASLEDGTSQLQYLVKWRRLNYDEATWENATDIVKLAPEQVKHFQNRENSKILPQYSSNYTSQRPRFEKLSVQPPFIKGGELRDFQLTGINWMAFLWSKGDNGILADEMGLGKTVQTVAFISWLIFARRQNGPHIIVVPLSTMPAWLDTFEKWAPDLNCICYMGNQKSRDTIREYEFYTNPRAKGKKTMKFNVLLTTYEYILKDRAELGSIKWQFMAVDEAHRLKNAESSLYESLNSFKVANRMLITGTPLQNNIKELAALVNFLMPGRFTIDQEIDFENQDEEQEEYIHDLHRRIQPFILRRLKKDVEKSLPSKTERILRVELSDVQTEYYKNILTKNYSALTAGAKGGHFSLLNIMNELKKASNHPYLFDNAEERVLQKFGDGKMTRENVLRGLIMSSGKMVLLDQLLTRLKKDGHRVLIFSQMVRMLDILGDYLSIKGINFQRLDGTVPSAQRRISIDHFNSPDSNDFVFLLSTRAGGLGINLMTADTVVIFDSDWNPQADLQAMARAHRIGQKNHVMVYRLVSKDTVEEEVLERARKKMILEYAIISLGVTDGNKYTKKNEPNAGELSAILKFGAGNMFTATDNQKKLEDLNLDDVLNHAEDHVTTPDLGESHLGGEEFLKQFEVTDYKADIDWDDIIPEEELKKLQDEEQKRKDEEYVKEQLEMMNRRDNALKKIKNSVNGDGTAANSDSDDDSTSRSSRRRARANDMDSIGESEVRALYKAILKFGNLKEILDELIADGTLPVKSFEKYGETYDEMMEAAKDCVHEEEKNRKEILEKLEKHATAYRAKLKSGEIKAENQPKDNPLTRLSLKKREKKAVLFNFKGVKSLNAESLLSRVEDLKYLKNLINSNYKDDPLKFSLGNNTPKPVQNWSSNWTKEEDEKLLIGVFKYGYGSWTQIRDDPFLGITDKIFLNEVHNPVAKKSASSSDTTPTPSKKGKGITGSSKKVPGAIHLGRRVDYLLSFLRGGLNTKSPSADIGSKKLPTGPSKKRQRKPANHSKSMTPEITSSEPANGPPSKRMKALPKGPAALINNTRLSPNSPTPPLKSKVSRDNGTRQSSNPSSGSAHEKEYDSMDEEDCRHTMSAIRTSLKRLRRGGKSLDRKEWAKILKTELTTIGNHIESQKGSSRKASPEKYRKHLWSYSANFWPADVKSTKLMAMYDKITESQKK
Assay: ScCHD-1 Enzyme Inhibition Assay; further: in the data most compounds retested in dose-response had high values
Type: functional
Parameters: scale not given: direction of the effect not stated beside the values
Details: 30 µM
Percent Effect listing for selected molecules.
property: Percent Effect (%)

molecule=Cc1noc([C@@]23CCO[C@@H]2CCN(C(=O)c2sccc2C)C3)n1 value_unit=% recorded_result=1.44
molecule="CC(NC(=O)NCCCn1cccn1)c1ccc2c(c1)NC(=O)CO2 (configuration not stated)" value_unit=% recorded_result=-10.1
molecule="CCOCCN1CCN(Cc2nc(C3CC3)no2)CC1CC (configuration not stated)" value_unit=% recorded_result=-5.89
molecule="c1cc(CNCC2CNc3ccnn3C2)cc(N2CCCCC2)n1 (configuration not stated)" value_unit=% recorded_result=-27.6
molecule=Cc1cnn(CCNCc2ccccc2C#N)c1 value_unit=% recorded_result=1.22
molecule=Cc1cc(C(=O)N2C[C@@H](C(=O)O)[C@H](c3ccccc3C)C2)c(C)o1 value_unit=% recorded_result=-4.1
molecule=COC1CCN(C(=O)c2c(Cl)c3ccccc3n2C)CC1 value_unit=% recorded_result=-5
molecule="Cc1c(C2CCCN(C(=O)Cc3ccccn3)C2)n2c(nc1=O)CCC2 (configuration not stated)" value_unit=% recorded_result=-11.6
molecule="Cc1ccc(CN2CCOC3(COCCN(CCN(C)C)C3)C2)o1 (configuration not stated)" value_unit=% recorded_result=-3.31
molecule=CC1CCN(C(=O)c2ccn(COc3ccc(F)cc3)n2)CC1 value_unit=% recorded_result=-3.54
molecule="Cc1nc(C)n(CC2CCCCN2Cc2nnc(C3CC3)o2)n1 (configuration not stated)" value_unit=% recorded_result=-9.02
molecule=O=C1N(c2ccccc2)Cc2nc(=O)[nH]n21 value_unit=% recorded_result=-10.1

* * *

System: Trypanosoma cruzi
Assay: Trypanosoma cruzi phosphomannomutase and mannose-1-phosphate guanylyltransferase assay
Type: functional
Set-up: scale not given: direction of the effect not stated beside the values
Details: 10 µM
property: Percent Effect (%)

molecule=Cc1ccccc1CNC(=O)Cc1c(C)nc2cc(=O)[nH]n2c1C property="Percent Effect" recorded_result=4.13
molecule=CC(=O)Nc1cccc(OCCNC(=O)N(C)Cc2ccco2)c1 property="Percent Effect" recorded_result=1.46
molecule=CCCn1nc2c(cc1=O)CN(CCCS(N)(=O)=O)CC2 property="Percent Effect" recorded_result=-3.3
molecule="Cc1cc(C)n(CC(C)CNC(=O)[C@@H](C)NC(=O)OC(C)(C)C)n1 (some centres undefined)" property="Percent Effect" recorded_result=0.487
molecule="O=C(CN1CCN(CC(O)C2CC2)CC1)NCc1ccc(F)cc1 (centres undefined)" property="Percent Effect" recorded_result=4.83
molecule=Cc1cc(N2CCCN(C(=O)Cc3csc(C)n3)CC2)ccn1 property="Percent Effect" recorded_result=-2.7
molecule="Cc1noc(CCCC(=O)NC(C)c2cn(-c3ccccc3)nn2)n1 (centres undefined)" property="Percent Effect" recorded_result=6.58
molecule="Cc1ccc(NC(=O)N2CCOC(C)C2)cc1Cl (centres undefined)" property="Percent Effect" recorded_result=2.58
molecule=O=C(Nc1ccc(F)cc1)N1C[C@H]2CC[C@@H]1CN(Cc1cccnc1)C2 property="Percent Effect" recorded_result=-2.15
molecule=COC(=O)CCc1c(C)nn(-c2nc(C)cc(=O)[nH]2)c1C property="Percent Effect" recorded_result=-3.06
molecule=CC(=O)c1cc(CC(=O)NCc2ccc(CN(C)C)cc2)cs1 property="Percent Effect" recorded_result=6.37
molecule="c1csc(CN2Cc3nccn3CC(Cn3cncn3)C2)n1 (centres undefined)" property="Percent Effect" recorded_result=-0.794
molecule=O=C(c1cscn1)N1CCC2(CCN(Cc3cccs3)CC2)C1 property="Percent Effect" recorded_result=0.489
molecule=CSCCCNC(=O)Nc1cccc(-c2nccn2C)c1 property="Percent Effect" recorded_result=-0.0972
molecule="CCOCC(O)CN1CCN(C(=O)c2cccc(F)c2)CC1 (centres undefined)" property="Percent Effect" recorded_result=7.92
molecule=COCCN1C[C@@H](C)[C@@]2(COCCN(C(=O)Cc3ccccc3)C2)C1 property="Percent Effect" recorded_result=1.54
molecule="Cc1ccc(N2CCCC(N(C)Cc3cc(C)no3)C2)nn1 (centres undefined)" property="Percent Effect" recorded_result=5.55
molecule=Cc1ccc(C(=O)N2CCSCC2)cc1NC(=O)Cn1cncn1 property="Percent Effect" recorded_result=7.74
molecule=N#Cc1ccnc(N2CCN(Cc3cccc(F)c3)CC2)c1 property="Percent Effect" recorded_result=4.2
molecule=CC(C)Nc1ncnc2c1CCN(C(=O)c1ccncc1F)CC2 property="Percent Effect" recorded_result=-6.35
molecule="Cc1nc(CN(C)C2CCN(Cc3ccno3)C2)no1 (centres undefined)" property="Percent Effect" recorded_result=5.19
molecule="CCOCC1CN(C(=O)c2ccncc2)Cc2nn(C)cc21 (centres undefined)" property="Percent Effect" recorded_result=0.193
molecule="Cc1ccoc1-c1nnc(CNCC2CCCN2c2cccnn2)o1 (centres undefined)" property="Percent Effect" recorded_result=1.98
molecule=COc1cccc(CCNS(=O)(=O)c2ccc(NC(C)=O)cc2)c1 property="Percent Effect" recorded_result=-4.58

* * *

Species on record: Homo sapiens
Experiment: To identify inhibition of the IFN signalling (Jak-Stat) pathway via expression of an eGFP reporter gene under the control of an IFN-stimulated response element (ISRE) containing MxA promoter.
Assay type: functional
Parameters: scale not given: direction of the effect not stated beside the values
Details: 30 µM
Percent Effect listing for selected molecules.
property: Percent Effect (%)

molecule="O=C(O)CC1CN(Cc2ccccc2)CCO1 (stereo not drawn)" recorded_result=6.89
molecule=COc1ccc(-n2cnnc2SCCC#N)cn1 recorded_result=-11.2
molecule=Cc1cccc2c1cnn2CCCNC(=O)CCCC(=O)O recorded_result=2.46
molecule="FC1(F)CCN(Cc2cccnc2)CC12CCN(c1ccccn1)C2 (stereo not drawn)" recorded_result=33.7
molecule="CCc1csc(C2CCCN(C(=O)c3ccnc(N(C)C)c3)C2)n1 (stereo not drawn)" recorded_result=41.7
molecule=O=S(=O)(CCNCc1cccc2c1OCCO2)N1CCOCC1 recorded_result=24.3
molecule=COc1ccc(CS(=O)(=O)CC(=O)NCC2CC2)cc1F recorded_result=8.09
molecule="CC(C)(C)N1CC(C(=O)N2CCN(CCn3cccc3)CC2)CC1=O (stereo not drawn)" recorded_result=5.12
molecule=COc1ccc(CN2C[C@H]3CC[C@](O)(c4ccc(C)cn4)[C@H]3C2)c(F)c1 recorded_result=13.7
molecule=CCN1CCN(C2CCN(Cc3nc(-c4ccoc4)no3)CC2)C1=O recorded_result=23.7
molecule="COc1cccc(CN2CCC(c3cc(O)nc(C)n3)C2)c1 (stereo not drawn)" recorded_result=29.9
molecule="CN(C)c1cc2c(nn1)CCN(C(=O)C1Cc3ccccc3S1)C2 (stereo not drawn)" recorded_result=-10.7
molecule="CCC(CO)NC(=O)c1ccc2ccc(N(C)CC3CC3)n2c1 (stereo not drawn)" recorded_result=8.81
molecule="CCN1CCC(CNC(=O)C2(c3cccc(C)c3)CC2)C1 (stereo not drawn)" recorded_result=13.3
molecule="Cc1nc(C)n(CC2CCCCN2CC(=O)Nc2ccncc2)n1 (stereo not drawn)" recorded_result=27.5
molecule=O=C1CCC2(CCN(Cc3cc(F)ccc3Cl)CC2)CN1C1CCCC1 recorded_result=18.2
molecule=COCC(=O)NCc1cccc(Br)c1 recorded_result=13.3
molecule=Cc1ncsc1C(=O)N(C)Cc1ccncc1 recorded_result=23.6
molecule=COc1nccc(N2CCN(Cc3ccc(C)cc3)C(=O)C2)c1C#N recorded_result=-2.81
molecule=CCN(c1ccc(C(=O)NCCCN2CCOCC2)cc1)S(=O)(=O)CC recorded_result=-2.55
molecule=Cc1cccc2[nH]c(C3CCN(C(=O)c4ccnn4C)CC3)nc12 recorded_result=2.04
molecule=COc1ccnc(N2CCN(C(=O)Cc3ccc(C)s3)CC2)n1 recorded_result=-7.95
molecule="CC(Cn1ccnc1)NC(=O)C1(c2ccc3c(c2)OCCO3)CCCC1 (stereo not drawn)" recorded_result=10.3
molecule="Cc1cnn(CC2CCCN2Cc2cc(=O)n3cccc(C)c3n2)c1 (stereo not drawn)" recorded_result=-6.92
molecule="CCc1nc(C(=O)N2CCN(C)CC2C)nn1-c1ccccc1Cl (stereo not drawn)" recorded_result=12.9
molecule="Cc1nc(CN2CCC3(CCCN(Cc4cnn(C)c4)C3)C2=O)cs1 (stereo not drawn)" recorded_result=-6.36
molecule="CC(C)c1nccn1C1CCCN(C(=O)c2cnn(C)c2C2CC2)C1 (stereo not drawn)" recorded_result=-7.13
molecule="CN(Cc1cscn1)C1CCCN(Cc2noc(C3CC3)n2)C1 (stereo not drawn)" recorded_result=0.628
molecule=O=S(=O)(c1cccnc1)N1CCN(CCn2ccnc2)CC1 recorded_result=-0.863
molecule="Cc1ncc(CNC2CCCN(Cc3noc(C4CC4)n3)C2)s1 (stereo not drawn)" recorded_result=8.96
molecule="CC(=O)N1CCCC(c2ccc(Nc3nc(C)cc(C)n3)cn2)C1 (stereo not drawn)" recorded_result=4.23
molecule=CCCn1nc2c(cc1=O)CN(CCCS(N)(=O)=O)CC2 recorded_result=-3.47
molecule=Cc1ncoc1C(=O)N1C[C@H]2CCC[C@@]2(COCC2CCOCC2)C1 recorded_result=-6.69
molecule="CN1CCCc2cc(NC(=O)N3CCOC(C(N)=O)C3)ccc21 (stereo not drawn)" recorded_result=14.3
molecule=CCCOc1ccc(NC(=O)NCCC(=O)N(C)C)cc1Cl recorded_result=12.8
molecule="CSC(C)C(=O)NCCCc1cc(N)n(-c2ccccc2)n1 (stereo not drawn)" recorded_result=14.8
molecule=CC(=O)N1CC[C@H]2OCC[C@@]2(C(=O)NCc2ccco2)C1 recorded_result=-5.97
molecule=CC(=O)Nc1nc(C2CCN(C(=O)c3cccnc3)CC2)cs1 recorded_result=5.76
molecule=Cc1ccc(C(=O)N2CCN(Cc3nc(C(C)C)no3)CC2)c(=O)[nH]1 recorded_result=13.8
molecule="CN(C)C(=O)c1ccc2c(c1)N(C)C(CC(=O)NCc1ccno1)CO2 (stereo not drawn)" recorded_result=18.1
molecule="Cn1cccc1CN1CCC2(CCCN(C(=O)Cc3cccnc3)C2)C1 (stereo not drawn)" recorded_result=2.23
molecule=CCc1nnc2n1CCN(C(=O)c1csc(-c3cnn(C)c3)n1)C2 recorded_result=0.753
molecule=c1ccc(OCCCNCCn2cccn2)cc1 recorded_result=-1.21
molecule="Cc1nccn1C1CCCN(C(=O)c2cc3ccccc3[nH]2)C1 (stereo not drawn)" recorded_result=27.9
molecule=O=C(NCCN1CCCCC1)c1nc(-c2ccc3cc[nH]c3c2)no1 recorded_result=-13.4
molecule="CC(Cn1cccn1)NCc1csc(-c2ccccc2F)n1 (stereo not drawn)" recorded_result=13.2
molecule=CN(Cc1cccs1)C(=O)CS(=O)(=O)Cc1ccc(Cl)c(Cl)c1 recorded_result=6.68
molecule="CC(C)Oc1ncccc1CNC(=O)N1CCC1c1ccccc1 (stereo not drawn)" recorded_result=23.3
